Just for reference, the supplement of paper PMC6555819 is where these values come from.

Tested on: VDR:RXRa (NR concentration 270 nM, RXRa partner concentration 90 nM)
Assay: PBM binding z-score (relative to random genomic background probes); higher = stronger binding; sequences stand for … in GC…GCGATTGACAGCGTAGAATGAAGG
experimental readout: PBM binding z-score
Give the value as a plain number.

Solved entries:
>  <record sequence>
ATACCAAGGTGATCGTGAGGTCGTTGCTACTAAC

>  <PBM binding z-score>
3.4

$$$$
>  <record sequence>
AGTCAAAGTTCTGGACGAGGTAACGTAAAGCACG

>  <PBM binding z-score>
-0.216

$$$$
>  <record sequence>
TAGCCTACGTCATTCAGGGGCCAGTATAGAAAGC

>  <PBM binding z-score>
-0.219

$$$$
>  <record sequence>
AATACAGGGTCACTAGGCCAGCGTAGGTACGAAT

>  <PBM binding z-score>
4.16

$$$$
>  <record sequence>
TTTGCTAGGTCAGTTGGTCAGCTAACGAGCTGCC

>  <PBM binding z-score>
0.134

$$$$

State, in one line, measured PBM binding z-score of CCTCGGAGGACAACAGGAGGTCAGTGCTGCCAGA
1.59

State, in one line, measured PBM binding z-score of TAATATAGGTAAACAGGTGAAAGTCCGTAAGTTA
1.19

State, in one line, measured PBM binding z-score of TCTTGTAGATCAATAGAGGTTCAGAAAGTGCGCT
1.65

State, in one line, measured PBM binding z-score of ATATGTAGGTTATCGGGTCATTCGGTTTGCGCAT
5.19

State, in one line, measured PBM binding z-score of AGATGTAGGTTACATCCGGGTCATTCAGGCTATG
4

State, in one line, measured PBM binding z-score of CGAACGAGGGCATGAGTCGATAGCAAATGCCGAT
0.359

State, in one line, measured PBM binding z-score of CCTCGGATGACAGAAGGTCAGAGCTGTCCGCTTT
1.21

----------
Tested on: RARb:RXRa (NR concentration 270 nM, RXRa partner concentration 90 nM)
Test: PBM binding z-score (relative to random genomic background probes); higher = stronger binding; sequences stand for … in GC…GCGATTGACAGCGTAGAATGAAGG
experimental readout: PBM binding z-score
Give the value as a plain number.

Solved entries:
>  <record sequence>
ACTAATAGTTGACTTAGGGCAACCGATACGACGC

>  <PBM binding z-score>
1.01

$$$$
>  <record sequence>
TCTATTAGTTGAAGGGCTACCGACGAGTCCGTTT

>  <PBM binding z-score>
0.525

$$$$

State, in one line, measured PBM binding z-score of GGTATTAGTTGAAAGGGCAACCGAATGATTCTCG
2.42

State, in one line, measured PBM binding z-score of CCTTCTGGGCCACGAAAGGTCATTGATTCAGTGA
4.21

State, in one line, measured PBM binding z-score of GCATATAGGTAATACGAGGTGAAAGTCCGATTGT
0.336

State, in one line, measured PBM binding z-score of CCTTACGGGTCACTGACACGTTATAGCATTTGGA
3.99

----------
Test system: LXRa homodimer (NR concentration 270 nM)
Assay: PBM binding z-score (relative to random genomic background probes); higher = stronger binding; sequences stand for … in GC…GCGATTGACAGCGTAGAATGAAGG
Give t when the value for PBM binding z-score is at least 0.4. Give f when it is less.

Examples with answers:
>  <record sequence>
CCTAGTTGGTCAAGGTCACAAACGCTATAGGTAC

>  <class name>
t

$$$$
>  <record sequence>
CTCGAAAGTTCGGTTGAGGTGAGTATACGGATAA

>  <class name>
f

$$$$
>  <record sequence>
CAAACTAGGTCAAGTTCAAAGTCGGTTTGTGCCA

>  <class name>
t

$$$$
>  <record sequence>
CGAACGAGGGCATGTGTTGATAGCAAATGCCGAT

>  <class name>
f

$$$$
>  <record sequence>
TCATATAGGTAAATGCTAGGTGAACGTCCGATCT

>  <class name>
f

$$$$

Please check the record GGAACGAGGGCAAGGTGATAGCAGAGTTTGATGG and state if its PBM binding z-score is at or above 0.4.
f

----------
Test system: PPARg:RXRa DBDmut IVT, anti-RXR (DBD mutation: RXRa K156A/R161A, NR concentration 270 nM, RXRa partner concentration 90 nM)
Experiment: PBM binding z-score (relative to random genomic background probes); higher = stronger binding; sequences stand for … in GC…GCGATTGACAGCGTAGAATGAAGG
Give Yes when the value for PBM binding z-score is at least 1. Give No when it is less.

Examples with answers:
>  <record sequence>
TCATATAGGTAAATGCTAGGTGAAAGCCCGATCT

>  <class name>
Yes

$$$$
>  <record sequence>
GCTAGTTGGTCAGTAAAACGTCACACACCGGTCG

>  <class name>
No

$$$$
>  <record sequence>
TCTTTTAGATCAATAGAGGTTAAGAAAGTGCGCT

>  <class name>
Yes

$$$$
>  <record sequence>
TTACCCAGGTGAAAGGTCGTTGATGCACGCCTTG

>  <class name>
Yes

$$$$
>  <record sequence>
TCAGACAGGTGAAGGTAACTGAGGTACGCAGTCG

>  <class name>
Yes

$$$$
>  <record sequence>
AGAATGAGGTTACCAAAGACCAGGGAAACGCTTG

>  <class name>
Yes

$$$$

Please check the record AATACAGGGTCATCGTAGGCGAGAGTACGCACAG and state if its PBM binding z-score is at or above 1.
Yes

Please check the record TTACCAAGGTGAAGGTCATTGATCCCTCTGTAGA and state if its PBM binding z-score is at or above 1.
Yes

Please check the record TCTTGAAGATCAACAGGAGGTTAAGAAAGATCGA and state if its PBM binding z-score is at or above 1.
Yes

Please check the record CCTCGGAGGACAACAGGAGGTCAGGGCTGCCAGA and state if its PBM binding z-score is at or above 1.
No

Please check the record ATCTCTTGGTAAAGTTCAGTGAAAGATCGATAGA and state if its PBM binding z-score is at or above 1.
No

Please check the record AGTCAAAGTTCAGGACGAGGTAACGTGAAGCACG and state if its PBM binding z-score is at or above 1.
No

----------
Test system: RARa homodimer (NR concentration 270 nM)
Experiment: PBM binding z-score (relative to random genomic background probes); higher = stronger binding; sequences stand for … in GC…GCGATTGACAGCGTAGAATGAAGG
experimental readout: PBM binding z-score
Give the value as a plain number.

Solved entries:
>  <record sequence>
GGGACGAGGGCATTCGAGTTGATAGCATGGCGAT

>  <PBM binding z-score>
0.349

$$$$
>  <record sequence>
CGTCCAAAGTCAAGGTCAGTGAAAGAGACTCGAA

>  <PBM binding z-score>
0.742

$$$$
>  <record sequence>
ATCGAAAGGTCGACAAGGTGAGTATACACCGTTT

>  <PBM binding z-score>
0.202

$$$$
>  <record sequence>
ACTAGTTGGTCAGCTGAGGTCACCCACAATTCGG

>  <PBM binding z-score>
1.52

$$$$
>  <record sequence>
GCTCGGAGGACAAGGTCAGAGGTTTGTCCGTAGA

>  <PBM binding z-score>
-0.638

$$$$
>  <record sequence>
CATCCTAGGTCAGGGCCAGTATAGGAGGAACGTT

>  <PBM binding z-score>
0.477

$$$$
>  <record sequence>
TAGCCTAGGTCATTGGGCCAGTCTAGTACGCATC

>  <PBM binding z-score>
-0.767

$$$$
>  <record sequence>
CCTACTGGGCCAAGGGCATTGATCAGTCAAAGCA

>  <PBM binding z-score>
-1.18

$$$$

Fill: PBM binding z-score (RARa homodimer (NR concentration 270 nM)) for this sequence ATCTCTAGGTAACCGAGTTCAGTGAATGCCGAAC
0.216

Fill: PBM binding z-score (RARa homodimer (NR concentration 270 nM)) for this sequence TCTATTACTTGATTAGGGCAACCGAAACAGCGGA
1.04

Fill: PBM binding z-score (RARa homodimer (NR concentration 270 nM)) for this sequence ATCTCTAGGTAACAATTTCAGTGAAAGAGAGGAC
1.81

Fill: PBM binding z-score (RARa homodimer (NR concentration 270 nM)) for this sequence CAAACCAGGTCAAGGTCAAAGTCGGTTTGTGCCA
2.21

Fill: PBM binding z-score (RARa homodimer (NR concentration 270 nM)) for this sequence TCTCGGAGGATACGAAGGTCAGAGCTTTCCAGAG
-0.378
